Below is a list of entries, each paired with its recorded TGI value.
test system: DU-145 prostate; assay: NCI tumour cell line growth inhibition, 48 h
Answer format: numeric, µM implied, no suffix.

1. C=C1C(=O)O[C@H]2[C@H]1CC/C(COC(=O)NCc1ccc(Cn3c(=O)sn(CCCC)c3=O)cc1)=C\CC[C@@]1(C)O[C@@H]21; 3.36
2. COc1cc(/C=C\c2cc(/C=C\c3ccc(O)c(OC)c3)n(C(=O)COc3ccc(Cl)cc3Cl)n2)ccc1O; 9.94
3. COc1ccc(-c2nc(S(=O)(=O)c3ccccc3)c(S(=O)CC(=O)N3CCC(C)CC3)o2)cc1 (centres undefined); 2.72
4. COc1ccc2cnc(N)c(C#Cc3cc(C(=O)Nc4ccc(CN5CCN(C)CC5)c(C(F)(F)F)c4)cnc3C)c2c1; 10.1

# query: TGI of entry Cc1ccc2c(c1)C(=O)C(c1c(-c3[nH]c(=O)c4ccc(C)cc4c3O)c(O)c3ccccc3c1O)=NC2=O
2.9

Continue with COc1cc(O)c2c3c(ccnc13)-c1ccccc1N2
35.7
